This collection of values is drawn from ChEMBL document CHEMBL3425507.

# Study Target: Peroxisome proliferator-activated receptor gamma (Homo sapiens, UniProt P37231)
# Procedure Details: Agonist activity at PPARgamma ligand binding domain (unknown origin) using fluormone Pan-PPAR green tracer by TR-FRET assay based competitive ligand binding method
Endpoint Label: IC50 (nM)

COc1cc2c(cc1CC=C(C)C)C(=O)C[C@H](c1ccc(O)cc1)O2 = 471
COc1cc2c(cc1CC=C(C)C)C(=O)C[C@@H](c1ccc(O)cc1)O2 = 617
COc1cc2oc(-c3ccc(O)cc3)cc(=O)c2cc1CC=C(C)C = 489

###

# Study Target: Peroxisome proliferator-activated receptor gamma (Homo sapiens)
# Sequence (P37231 whole entry): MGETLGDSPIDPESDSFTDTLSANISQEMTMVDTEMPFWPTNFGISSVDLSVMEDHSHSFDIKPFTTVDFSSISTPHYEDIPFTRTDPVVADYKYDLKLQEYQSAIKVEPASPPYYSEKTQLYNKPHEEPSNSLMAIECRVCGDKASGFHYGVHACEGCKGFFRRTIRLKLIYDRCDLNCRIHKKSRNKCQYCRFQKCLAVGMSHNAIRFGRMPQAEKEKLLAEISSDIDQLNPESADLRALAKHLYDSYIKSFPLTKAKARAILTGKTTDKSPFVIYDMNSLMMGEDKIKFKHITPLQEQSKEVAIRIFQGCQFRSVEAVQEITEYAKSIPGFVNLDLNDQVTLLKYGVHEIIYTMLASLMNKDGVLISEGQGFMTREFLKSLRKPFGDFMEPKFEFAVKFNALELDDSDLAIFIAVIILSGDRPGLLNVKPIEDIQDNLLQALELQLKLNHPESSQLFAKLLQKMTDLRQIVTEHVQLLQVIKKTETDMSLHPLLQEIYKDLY
# Procedure Details: Agonist activity at PPARgamma ligand binding domain (unknown origin) using fluormone Pan-PPAR green tracer by TR-FRET assay based competitive ligand binding method
pKi: −log10 of the molar value.
Endpoint Label: pKi

COc1cc2c(cc1CC=C(C)C)C(=O)C[C@@H](c1ccc(O)cc1)O2 [BAVACHININ A] = 6.65
COc1cc2oc(-c3ccc(O)cc3)cc(=O)c2cc1CC=C(C)C [BAVACHININ] = 6.76
COc1cc2c(cc1CC=C(C)C)C(=O)C[C@H](c1ccc(O)cc1)O2 = 6.77
